Tested on: MOLT-4 leukemia
Test: NCI tumour cell line growth inhibition, 48 h
measured_metric: TGI

# molecule, result
measured = [
    ("CCN(C(=O)N1CCN(c2cc3c(cc2F)c(=O)c(C(=O)O)cn3C2CC2)CC1)c1nc(-c2ccc(C)cc2)cs1", "> 100 µM"),
    ("CCCCCC/C=C\\CCCCCCCCCc1cccc(O)c1C(=O)O", "> 100 µM"),
    ("COc1cc(OC)c(OC)cc1/C=N/N=C(\\N)NO", "> 100 µM"),
    ("O=C(N=S(NC(=O)c1ccccc1)C(Cl)(Cl)Cl)c1ccccc1 (stereo not given)", "30.7 µM"),
    ("Cc1n[nH]c(=O)c2cc(-c3ccccc3)[nH]c12", "> 100 µM"),
    ("N#Cc1c(N/N=C/c2c(Cl)cccc2Cl)nc(N)nc1N1CCOCC1", "40.6 µM"),
    ("COc1ccc(NC(=O)C/C(C)=N\\N=C(N)N)c([N+](=O)[O-])c1", "> 100 µM"),
    ("Cc1c(C#N)c(=O)[nH]c(=O)n1CCN1CCN(C(=O)NCCCCCCNC(=O)N2CCN(CCn3c(C)c(C#N)c(=O)[nH]c3=O)CC2)CC1", "> 100 µM"),
    ("CC(=O)Nc1ccccc1SCCSSCCSc1ccccc1NC(C)=O", "> 100 µM"),
    ("Cc1c(/C=N/NC(=S)Nc2ccccc2Cl)c(=O)n(-c2ccccc2)n1C", "> 100 µM"),
    ("Nn1c(-c2ccccc2Cl)nc2ccccc2c1=O", "> 100 µM"),
    ("C=CC(=O)Nc1cccc(C)c1Nc1cc(-c2cccnc2Cc2c(C)c(OC)cc(OC)c2C)ncn1", "> 100 µM"),
    ("COC(=O)C1=CSC2(S1)C(C(=O)OC)=CSc1c2ssc1=Nc1ccccc1 (stereo not given)", "3.55 µM"),
    ("COc1cc2c(c(OC)c1OC)C(=O)[C@H](O)[C@H]2NC(N)=O", "> 100 µM"),
    ("O=c1cc(-c2cccc(Cl)c2)[nH]c2ncccc12", "> 24.8 µM"),
    ("Cc1cc(N/N=C/c2nc(-c3ccc(Br)cc3)oc2C)c2cc(Cl)ccc2n1", "> 100 µM"),
    ("O=NC1C(Cl)C2CC1C1C(Br)C(Br)CC21 (stereo not given)", "> 100 µM"),
    ("COc1ccc(-c2c(N)n(-c3nc4ccccc4s3)c(=O)c3cc([N+](=O)[O-])ccc23)cc1", "49.2 µM"),
    ("COCn1c2ccc(OC(C)=O)cc2c2c(=O)oc(N(C)C)nc21", "> 100 µM"),
    ("COc1ccc(NC(=O)CC(=O)N2N=C(C)C(N=Nc3ccc(S(=O)(=O)c4ccc(N=NC5C(=O)N(C(=O)CC(=O)Nc6ccc(OC)cc6)N=C5C)cc4)cc3)C2=O)cc1 (stereo not given)", "> 100 µM"),
]

* * *

System: MCF7 breast
Test: NCI tumour cell line growth inhibition, 48 h
Entries and their measured GI50 follow.

# compound, GI50
measured = [
    ("Nc1ncnc2[nH]ncc12", "435 nM"),
    ("O[C@H]1CO[C@H]2[C@@H]1OC[C@@H]2Oc1ccc(Nc2ccnc(Nc3ccc(O[C@H]4CO[C@H]5[C@@H]4OC[C@@H]5O)c(Cl)c3)n2)cc1Cl", "1730 nM"),
    ("CC1=C(CCC(C)N(C)Cc2ccc(OCCCN3CCCC3)cc2)C(C)(C)CCC1 (centres undefined)", "1630 nM"),
    ("N#C/C(=C\\c1c(-c2ccccc2)[nH]c2ccccc12)S(=O)(=O)c1ccccc1", "2150 nM"),
    ("CN1CCN(Cc2ccc(NC(=O)c3cncc(C#Cc4cnc(N)c5ccncc45)c3)cc2C(F)(F)F)CC1", "1930 nM"),
    ("C[C@@H]1CC[C@H]2C(COCCOCC3=C(C(F)(F)F)O[C@@H]4O[C@@]5(C)CC[C@H]6[C@H](C)CC[C@@H]3[C@@]46OO5)=C(C(F)(F)F)O[C@@H]3O[C@@]4(C)CC[C@@H]1[C@]32OO4", "32.2 nM"),
    ("CC(CN1CCN(CCOCCO)CC1)CN1c2ccccc2Sc2ccc(Cl)cc21 (centres undefined)", "2640 nM"),
    ("O=C(NN1C(=O)CSC12CCCCC2)c1[nH]c2ccc(F)cc2c1-c1ccccc1", "19400 nM"),
    ("O=C1c2c(c3c4ccccc4[nH]c3c3ccc4ccccc4c23)C(=O)N1CCN1CCCCC1", "38.8 nM"),
]
